- assay.remarks: soluble fraction after stress (log2 fold change); higher = more stays soluble; pooled small domains, quantitative proteomics;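 also: 20 min heating vs room temperature control held 20 min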
- condition.summary: stress: 75 degC
The threshold is inclusive: soluble fraction (log2) of exactly -0.3 counts as t; values below receive f.

{"macromolecule.sequence": "HMAIELTPRQLDIIELVRKHAPITGEQIAELLGVTRPSIRSDLGLLVMLGYIDAKPKVGYFAGPRM", "assigned.category": "f"}
{"macromolecule.sequence": "HMVNTVEVQGNTIYSAEEIRSASGIQKGDNLFTLNKEAAAGSIKASLPYVETVSIIRFLPDKIVIEVKE", "assigned.category": "f"}
{"macromolecule.sequence": "HMSPILTPDQATKAYGKDGVLYIHSNKERTIYIYDVTGRTVRILEAVEGENQINGLEKGIYFLEGQKVAV", "assigned.category": "f"}
{"macromolecule.sequence": "HMDENTEQESQTVVVPDVTGKSLSEAASILREAGLDYLAEQTGTVVTKQMPLPDAEVLINTTVLLYTDSE", "assigned.category": "t"}
{"macromolecule.sequence": "HMEIHQVEFGGKVISFVLERKPVKNVNLHIKPDMTVMVSANEKVPLDFILGFVKQKAAWILKNIQFFEDV", "assigned.category": "f"}
{"macromolecule.sequence": "HMTGMDALIGRRVFVSEEILPGDAGGRVAVDGDSWRAISVGTAKPIPAGTEVRIHGYKSLILEVEPI", "assigned.category": "f"}
{"macromolecule.sequence": "HMDLSYPFTTVTTDNVNMRRSASSSSVVLERIDKGDSITVLGTSGNYYKVSYNDRTGYVLKQYVDVSAATT", "assigned.category": "t"}
{"macromolecule.sequence": "HMAEQVLHQKLAARRKELNSLVAQVARVRGIPHSHVHSGLRREAGGPPLAQATTDQVEARISLARKWLRA", "assigned.category": "f"}
{"macromolecule.sequence": "HMSDDLLTGLDAYSRGDWTTATASFERVLTTADPNNRTEALYWLVMSETSAQNYQRALNYANTFL", "assigned.category": "f"}
{"macromolecule.sequence": "HMAPASADQLIDQLNEKVKAKDDKGVAALLTAAQTKMAELAQKDPKEAQAYVAKLQQWMQSNSENIKAALK", "assigned.category": "t"}
{"macromolecule.sequence": "HMEVAVQFIEFKIPENHAWIGKEIREITFPPESILVLIIRDGKKLVPNGKTVLKEGDSLILSGKASD", "assigned.category": "f"}
{"macromolecule.sequence": "HMNDMWADITINANGKATLVVHTHEIKYLGLTGHLGKMEINGTAKEPVKDSSGDVVDYYFTFTDLDASMF", "assigned.category": "t"}
{"macromolecule.sequence": "HMVITISEADVSGTYTKSITQGDWKYIRTWTPFEDERLYDLAKDPMELRDLAPAAPSKLAELRELLSALVS", "assigned.category": "f"}
{"macromolecule.sequence": "HMSIAEMSGARKSAILLLALDEDSAAEIFKYLSAGEVQEISMEMAKLNQVSHDDMKAVLEAFHKETEEFV", "assigned.category": "f"}
{"macromolecule.sequence": "HMVVTMEKIVVNDGGIRIDTYLADKLNISRSKVAKMLENNILVNNVKVKPSYKVTNNDIIEVEEYV", "assigned.category": "f"}
{"macromolecule.sequence": "HMKYEFEFPYWSNKEAKHMIVTINYPNGTRATASIQDNDGSNPDYKRIMEEFGEEQIDANTEEGLKRR", "assigned.category": "t"}
{"macromolecule.sequence": "HMFDTVFIVRKTSDKPLDGLRTYLNSIGDSLVIGEDDEAFKVHVHTNHPGKVLEEAITYGALQTVKIENMR", "assigned.category": "f"}
{"macromolecule.sequence": "HMEVFGDTKEEQMIIDILKLGITDLEHLQAKSMLEPAIFSQTLTMLEISGKIRPLGAGHWTL", "assigned.category": "f"}
{"macromolecule.sequence": "HMGDTIGEQKAKEIALEHAGLKSSDVTFIRAVLEYDDRNWEYDVEFYDADTYTEYDYEIDAHTGKILSFDH", "assigned.category": "t"}
{"macromolecule.sequence": "HMGDAVYSKVKDLVNTYNALAKQTGKSDLVSISQSRTWMVNDTKAHEVQWNKIGITIEDDQTLTI", "assigned.category": "t"}
{"macromolecule.sequence": "HMGQLTDKQILLFSGKLAYEPTFASKYSKAGESYDDFIIRISGDLTDPKKIKEYSPYLKELGF", "assigned.category": "f"}
{"macromolecule.sequence": "HMGTEITEQRAKEIALENAKVAESDVTAMRVKKEMDDGVWRYDVEFYVQNKEYDYEINAMDGTILSVDYD", "assigned.category": "t"}
{"macromolecule.sequence": "HMKITTKNYFKAIAEVGVENLPAALKKSHDLIEERTSKGADWSVYEHDAEVRRVFDLTFEKLFEFIDQ", "assigned.category": "f"}
{"macromolecule.sequence": "HMLDNHPQSKKIRALWLEMAAAGVVRDSSEQALALWVKRETGISALRWLSNEQASSVIEKLKKWQRRAAG", "assigned.category": "f"}
{"macromolecule.sequence": "HMNSILFAITKEGGVVYGGKPVGVNGVRPLVRRLLQSEEMPVILQVDEKADAGLVIRVIDESKLGGASKV", "assigned.category": "f"}
{"macromolecule.sequence": "HMKLQIQNIEIDKKISELAEGVSAEKLPFLAKLIDRSKLLNDKGEINEDSVKAAIEEVVKAFPDFK", "assigned.category": "t"}
{"macromolecule.sequence": "HMKPTVKKLLAALPELRSGQPLHLSVATRKLRDAGLLGKNASSPTLFRNYVAQFELIPENQPNAVRYR", "assigned.category": "f"}
{"macromolecule.sequence": "HMADFIKEIKTNNPRQLLKSILSSFMPRALILELEMLLWNDLKSKPIGEWSNTQIENVGKLLNNWILKPAA", "assigned.category": "t"}
{"macromolecule.sequence": "HMTYKHLTIDEMKRFLSTREDSQSALVQFARVENVVGNRKGKYAVIKKWFLKNYKEEYNAFLS", "assigned.category": "t"}
{"macromolecule.sequence": "HMPETAQLTDIQVSRSQAHTGIFSLHYYLTGTDSRGERVRLEISGDDYTRLSGSSSVTVEYYRHTGRIVRY", "assigned.category": "f"}
{"macromolecule.sequence": "HMKFSVEEQFKKSFPKNTYETFSETSLKGVYEVYNGKQVYYYLPVNDVLLLGSIVTKDGKNLTQESNSKK", "assigned.category": "t"}
{"macromolecule.sequence": "HMFLPFFDNLRKAGVPVSLREFLGFLEGMKAGLATYDIDAFYFLARTTMVKDERNLDKFDRAFSATFKG", "assigned.category": "f"}
